- experimental target: 4-1BB (TNFRSF9) (Homo sapiens) (UniProt Q07011)
- Sequence (Q07011 24-186): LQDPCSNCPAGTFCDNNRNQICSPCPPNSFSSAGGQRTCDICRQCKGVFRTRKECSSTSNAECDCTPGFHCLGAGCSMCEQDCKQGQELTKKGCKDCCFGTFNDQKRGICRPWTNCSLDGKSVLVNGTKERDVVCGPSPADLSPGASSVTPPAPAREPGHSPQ
- assay conditions: Nap-dU at n (6) positions [Nap-dU at 16,18,20,27,32,33,34,40,42,44,46,54]; ELISA, SB18 buffer (5 mM MgCl2), 37 C
result type: Kd (pM)
The reply should contain only the number, in pM.

Query for 4-1BB (TNFRSF9) (Homo sapiens) (UniProt Q07011): what Kd does the record show for GAGTGACCGTCTGCCTGTCTCCAACCTCGCCTTTACAACTATATCTGACGAACTAACACAGCCACACCACCAGCC [AB001] ?
40

---

- experimental target: human serum albumin (HSA) (Homo sapiens)
- assay conditions: Nap-dU at n (6) positions [2,4,10,12,14,19,27,29,33,34,35,36,43,45]; ELISA, SB18, 37 C
result type: Kd (nM)
The reply should be a number in nM, with the unit left off.

Fill blank: measured Kd of the sequence CTGTACGCGTGTGTGACCTGAAGACGTATAACTTTTACAGAATCTACA [AD052] is ____.
3.06

---

- System: KRAS G12D G12D, P01116-2
- assay conditions: Nap-dU at n (6) positions [22,28,35,36,37,49]; ELISA, SB18, 37 C
result type: Kd (nM)
Kindly answer with a numeric value in nM, unit omitted.

// query Kd value for entry GAGTGACCGTCTGCCTGAAAGTCCGGATGGCAGCTTTACAGGCAGAACTAACG [TD006]
628

---

- experimental target: human serum albumin (HSA) (Homo sapiens) (UniProt P02768)
- assay conditions: Nap-dU at n (6) positions [12,21,26,30,36,43,44,45,47,56]; ELISA, SB18, 37 C
result type: Kd (µM)
Numeric only. Scale: µM

Need Kd, item GAGTGACCGTCTGCCTGGACTAGCATAAGTCCGGATGGCAGCTTTATGCCGACCATCAGCCACACCACCAGCC [AD003]
0.013

---

- Test system: KRAS G12D G12D, P01116-2
- assay conditions: Nap-dU at n (6) positions [5,11,13,19,21,23,28,36,38,42,43,44,45]; ELISA, SB18, 37 C
result type: Kd (nM)
Write the answer as a number in nM, unit excluded.

Look up Kd for this sequence: CAGGTCGAGCTGTACGCGTGTGTGACCTGAAGACGTATAACTTTTACAG [AD046]
5.38

---

- experimental target: PD-L1 (B7-H1) (Homo sapiens) (UniProt Q9NZQ7)
- Sequence (Q9NZQ7 19-238): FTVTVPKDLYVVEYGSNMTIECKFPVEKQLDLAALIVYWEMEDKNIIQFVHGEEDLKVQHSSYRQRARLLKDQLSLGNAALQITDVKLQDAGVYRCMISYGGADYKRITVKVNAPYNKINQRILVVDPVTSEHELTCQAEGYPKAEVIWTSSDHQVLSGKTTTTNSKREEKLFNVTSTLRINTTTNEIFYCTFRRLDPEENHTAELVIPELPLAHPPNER
- assay conditions: Nap-dU at n (6) positions [Nap-dU at 21,28,30,33,36,37,40,49]; ELISA, SB18, 37 C
result type: Kd (nM)
Provide only the numeric value, understood in nM.

Requested read-out: Kd. Entry: GTCTGCCTGACAACAACGAGTGCGAACTGTACTACTTGATAGAGACCCTCAGCCACACCACCAGCC [AP022]
66.6

Returns the measured Kd for the input sequence. Input: GTCTGCCTGACAACAACGAGTGCGAACTGTACTACTTGATAGAGACCCTC [AP024]
33.3

---

- System: KRAS G12D G12D, P01116-2
- assay conditions: Nap-dU at n (6) positions [9,14,18,24,31,32,33,35,44]; ELISA, SB18, 37 C
result type: Kd (nM)
Just the number in nM, nothing appended.

Return reported Kd; argument: GCCTGGACTAGCATAAGTCCGGATGGCAGCTTTATGCCGACCATCAGCC [AD004]
16.6

---

- Tested on: KRAS G12D G12D, P01116-2
- assay conditions: Nap-dU at n (6) positions [2,4,9,17,19,23,24,25,26,33,35]; ELISA, SB18, 37 C
result type: pKd
In textbook form, pKd equals minus log to base ten of the concentration in mol/L.

Given the sequence GTGTGACCTGAAGACGTATAACTTTTACAGAATCTACA [AD050] , what is its reported pKd?
6.34

---

- Test system: KRAS G12D G12D, P01116-2
- assay conditions: Nap-dU at n (6) positions [5,11,13,19,21,23,28]; ELISA, SB18, 37 C
result type: pKd
Lab note: report pKd as minus log10 of the concentration in molar units, number only.

For the sequence shown here, CAGGTCGAGCTGTACGCGTGTGTGACCTGAAGAC [AD043] , give the reported pKd.
6.58

---

- experimental target: human serum albumin (HSA) (Homo sapiens) (UniProt P02768)
- assay conditions: Nap-dU at n (6) positions [Nap-dU at 5,6,7,8,11,17,18,19,22]; ELISA, SB18, 37 C
result type: pKd
Scale note: pKd = -log10(concentration in M).

Can you look up the measured pKd of GCCCTTTTAATCCGACTTTAAT [AA007] for me?
8.69

---

- experimental target: transferrin (TF) (Homo sapiens) (UniProt P02787)
- Sequence (P02787 20-698): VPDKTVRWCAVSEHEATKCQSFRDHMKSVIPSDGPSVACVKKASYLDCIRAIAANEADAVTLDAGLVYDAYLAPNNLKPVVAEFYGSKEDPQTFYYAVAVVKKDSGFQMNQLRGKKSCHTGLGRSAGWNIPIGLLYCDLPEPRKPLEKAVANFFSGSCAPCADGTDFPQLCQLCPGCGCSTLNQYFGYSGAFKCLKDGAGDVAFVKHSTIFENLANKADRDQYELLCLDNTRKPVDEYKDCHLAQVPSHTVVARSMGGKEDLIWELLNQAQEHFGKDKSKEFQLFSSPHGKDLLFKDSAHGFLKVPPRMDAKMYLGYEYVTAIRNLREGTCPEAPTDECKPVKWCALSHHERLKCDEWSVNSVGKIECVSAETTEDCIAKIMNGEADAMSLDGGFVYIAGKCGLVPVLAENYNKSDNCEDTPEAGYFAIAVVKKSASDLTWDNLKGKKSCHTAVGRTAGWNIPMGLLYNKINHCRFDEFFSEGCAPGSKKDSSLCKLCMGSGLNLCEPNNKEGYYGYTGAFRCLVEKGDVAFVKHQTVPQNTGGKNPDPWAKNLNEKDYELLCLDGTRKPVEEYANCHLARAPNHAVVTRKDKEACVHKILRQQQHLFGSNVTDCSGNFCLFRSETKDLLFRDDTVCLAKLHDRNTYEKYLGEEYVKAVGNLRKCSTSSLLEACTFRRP
- assay conditions: Nap-dU at n (6) positions [22,28,35,36,37,49]; ELISA, SB18, 37 C
result type: pKd
Quick note: pKd means taking -log10 of the concentration in moles per liter.

Name the reported pKd value associated with the sequence GAGTGACCGTCTGCCTGAAAGTCCGGATGGCAGCTTTACAGGCAGAACTAACG [TD006]
6.01

---

- Tested on: KRAS G12D G12D, P01116-2
- assay conditions: Nap-dU at n (6) positions [13,15-16,18,23-24,29,31,34,41,44]; ELISA, SB18, 37 C
result type: pKd
Lab note — pKd values are minus log10 of concentrations in M.

Would you kindly share the measured pKd for GCCTGCCCCGCCTCTTCTGAAGTTAACATGTGCTCCGAGATGGTACAGCC [AD010] ?
8.09

---

- experimental target: human serum albumin (HSA) (Homo sapiens) (UniProt P02768)
- assay conditions: Nap-dU at n (6) positions [Nap-dU at 24,31,33,36,39,40,43,52]; ELISA, SB18, 37 C
result type: Kd (nM)
A number alone suffices; assume nM.

For the record ACCGTCTGCCTGACAACAACGAGTGCGAACTGTACTACTTGATAGAGACCCTCAGCCACACCACCAGCC [AP021] , what value of Kd is listed for human serum albumin (HSA) (Homo sapiens) (UniProt P02768)?
15.6

---

- experimental target: CD3 delta/epsilon heterodimer (UniProt P04234+P07766)
- Sequence (P04234 22-105, stated change not applied, chain 1 of 2): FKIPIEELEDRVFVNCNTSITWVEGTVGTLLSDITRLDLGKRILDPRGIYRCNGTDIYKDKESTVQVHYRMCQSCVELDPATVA
- Sequence (P07766 23-126, stated change not applied, chain 2 of 2): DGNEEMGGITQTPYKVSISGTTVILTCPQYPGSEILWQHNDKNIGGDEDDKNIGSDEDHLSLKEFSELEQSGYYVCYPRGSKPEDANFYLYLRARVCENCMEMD
- assay conditions: Nap-dU at n (6) positions [Nap-dU at 5,6,7,8,11,17,18,19,22]; ELISA, SB18, 37 C
result type: pKd
Reminder that pKd is minus the log10 of a molar concentration.

So what does the record say about pKd for GCCCTTTTAATCCGACTTTAAT [AA007] ?
7.82

---

- experimental target: human serum albumin (HSA) (Homo sapiens)
- assay conditions: Nap-dU at n (6) positions [18,20,22,32,33,34,35,36,44,45,47,53,57 (Nap-dU)]; ELISA, SB18, 37 C
result type: Kd (nM)
Numbers only here, please. The scale is nM.

# Kd lookup, item GAGTGACCGTCTGCCTGTGTCTGAGGGACCCTTTTTAAGGGCATTATCAGCATGCCTCACACAGCCACACCACCAGCC [AD002]
1.3

---

- Tested on: KRAS G12D G12D, P01116-2
- assay conditions: Nap-dU at n (6) positions [8,10-11,13,18-19,24,26,29,36,39]; ELISA, SB18, 37 C
result type: pKd
Scale for pKd: -log10 of concentration given in mol/L; no unit attached.

What pKd value was documented for this sequence, CCCCGCCTCTTCTGAAGTTAACATGTGCTCCGAGATGGTA [AD011] ?
8.02

---

- Test system: KRAS G12D G12D, P01116-2
- assay conditions: Nap-dU at n (6) positions [Nap-dU at 2,6,8,9,11,16,17,22,24,27,35]; ELISA, SB18, 37 C
result type: Kd

For the sequence ATGCCTCTTCTGCAGTTACGGTGTGATCGCCCAATAGCAGCCAC [TD012] , what Kd is on record?
1310 nM

---

- Test system: KRAS G12D G12D, P01116-2
- assay conditions: Nap-dU at n (6) positions [1,7,9,15,17,19,24,32,34,38,39,40,41,48,50]; ELISA, SB18, 37 C
result type: Kd (nM)
Return type: number; implicit unit nM.

Value lookup for Kd; key = TCGAGCTGTACGCGTGTGTGACCTGAAGACGTATAACTTTTACAGAATCTACA [AD053]
1.03

---

- experimental target: human serum albumin (HSA) (Homo sapiens)
- assay conditions: Nap-dU at n (6) positions [5,7,9,14,22,24,28,29,30,31,38,40]; ELISA, SB18, 37 C
result type: Kd (nM)
Reply with just the number (in nM).

Which Kd is reported for this sequence? CGCGTGTGTGACCTGAAGACGTATAACTTTTACAGAATCTACA [AD051]
5.95

Data provenance is patent US20230220399.
